Parameter Total Cell Count: see the listing below.
System: HEK-293T
Assay: Multiplex assay against HEK293T
Format: toxicity, cell-based
Conditions: human, 48 h, 10 µM, compound concentration 10 uM, replicate 1
// response body must contain only the number

{"Compound smiles": "CC(C)c1noc(N2CCC(COc3ccc(-c4ccc(S(C)(=O)=O)cc4)nc3)CC2)n1", "Assayed system": "HEK-293T", "Quantity name": "Total Cell Count", "Measured value": 506}
{"Compound smiles": "CC(=O)Nc1cccc2c1c(Sc1ccc(Cl)cc1)c(C)n2CC(=O)O", "Assayed system": "HEK-293T", "Quantity name": "Total Cell Count", "Measured value": 751}
{"Compound smiles": "COc1ccccc1N1CCN(C[C@@H](C(=O)NC(C)(C)C)c2ccccc2)CC1.Cl.Cl", "Assayed system": "HEK-293T", "Quantity name": "Total Cell Count", "Measured value": 467}
{"Compound smiles": "CC(/C=C1\\SC(=S)N(CCCC(=O)Nc2ccc(C(=O)O)c(O)c2)C1=O)=C\\c1ccccc1", "Assayed system": "HEK-293T", "Quantity name": "Total Cell Count", "Measured value": 479}
{"Compound smiles": "Cc1cnc(-c2cc(N3CCN(C(=O)CCS(C)(=O)=O)CC3)ncc2Cl)c(C)c1", "Assayed system": "HEK-293T", "Quantity name": "Total Cell Count", "Measured value": 753}
{"Compound smiles": "N#Cc1cc(F)cc(-c2nc(-c3ccc(F)cn3)no2)c1", "Assayed system": "HEK-293T", "Quantity name": "Total Cell Count", "Measured value": 643}
{"Compound smiles": "Cc1onc(-c2ccccc2Cl)c1C(=O)N(C)c1ccc(Cl)cc1", "Assayed system": "HEK-293T", "Quantity name": "Total Cell Count", "Measured value": 755}
{"Compound smiles": "Cc1noc(-c2ccc(-c3ccc(CC(=O)O)cc3)cc2)c1NC(=O)O[C@H](C)c1ccccc1Cl", "Assayed system": "HEK-293T", "Quantity name": "Total Cell Count", "Measured value": 445}

// below: Total Cell Count requested for another compound
Retrieve Total Cell Count measured for Cc1cccc(NC(=O)CN2CCC(c3ccccn3)CC2)c1.Cl.Cl and print it.
515

----------
System: U2OS
Assay: Multiplex assay against U2OS
Type: toxicity, cell-based
Settings: human, 24 h, 1 µM, compound concentration 1 uM, replicate 2
Labelling: Population Membrane Permeable-Phenotype (%) reported below 9% becomes True; at or above becomes False.

{"Compound": "N#Cc1c(Oc2cccc(OS(=O)(=O)CCCC(F)(F)F)c2)cccc1C(F)(F)F", "Class label": "False"}
{"Compound": "CN1CCN(c2cc(-c3ccccc3)nc(N)n2)CC1", "Class label": "True"}
{"Compound": "Cc1noc(-c2ccc(-c3ccc(CC(=O)O)cc3)cc2)c1NC(=O)O[C@H](C)c1ccccc1Cl", "Class label": "True"}
{"Compound": "Cc1sc2c(c1C)C(c1ccc(Cl)cc1)=N[C@@H](CC(=O)NCCCCCCCCNC(=O)COc1cccc3c1C(=O)N(C1CCC(=O)NC1=O)C3=O)c1nnc(C)n1-2 (some centres undefined)", "Class label": "True"}
{"Compound": "CC(/C=C1\\SC(=S)N(CCCC(=O)Nc2ccc(C(=O)O)c(O)c2)C1=O)=C\\c1ccccc1", "Class label": "False"}
{"Compound": "CC(C)COc1ccc(CNC(=O)N(Cc2ccc(F)cc2)C2CCN(C)CC2)cc1", "Class label": "False"}
{"Compound": "CN(C)C(=O)Cn1cc(-c2ccc(-c3cncc4ccccc34)cc2)cn1", "Class label": "True"}
{"Compound": "C[C@H](N)COC(=O)[C@@H](CCCCN)NC(=O)Cc1c(-c2ccc3ccccc3c2)[nH]c2c1ccc1ccccc12", "Class label": "True"}

Consider the compound Cc1onc(-c2ccccc2Cl)c1C(=O)N(C)c1ccc(Cl)cc1 . Is its Population Membrane Permeable-Phenotype (%) strictly less than 9%?
True

Consider the compound Cc1cccc(NC(=O)CN2CCC(c3ccccn3)CC2)c1.Cl.Cl . Is its Population Membrane Permeable-Phenotype (%) strictly less than 9%?
True

Consider the compound Cl.NCCc1ccc(O)c(O)c1 [DOPAMINE HYDROCHLORIDE] . Is its Population Membrane Permeable-Phenotype (%) strictly less than 9%?
True

Consider the compound O=C1[C@H](Cc2ccc(O)cc2)N2C(=O)CCN(C(=O)NCc3ccccc3)[C@H]2CN1Cc1cccc2ccccc12 . Is its Population Membrane Permeable-Phenotype (%) strictly less than 9%?
True

Consider the compound COc1ccccc1N1CCN(C[C@@H](C(=O)NC(C)(C)C)c2ccccc2)CC1.Cl.Cl . Is its Population Membrane Permeable-Phenotype (%) strictly less than 9%?
True

Consider the compound COc1cccc2c1c(NS(=O)(=O)c1ccc(Cl)s1)nn2Cc1cccc(CNC(=O)C(C)(C)O)c1 . Is its Population Membrane Permeable-Phenotype (%) strictly less than 9%?
True

----------
Test system: HEK-293T
Assay: Multiplex assay against HEK293T
Assay type: toxicity, cell-based
Conditions: human, 24 h, 1 µM, compound concentration 1 uM, replicate 2
Quantity name: Population Normal (%)
Value and unit, in that order.

{"Molecule": "Cc1cnc(-c2cc(N3CCN(C(=O)CCS(C)(=O)=O)CC3)ncc2Cl)c(C)c1", "Quantity name": "Population Normal (%)", "Measured value": "93%"}
{"Molecule": "Cc1sc2c(c1C)C(c1ccc(Cl)cc1)=N[C@@H](CC(=O)NCCCCCCCCNC(=O)COc1cccc3c1C(=O)N(C1CCC(=O)NC1=O)C3=O)c1nnc(C)n1-2 (stereo partly specified)", "Quantity name": "Population Normal (%)", "Measured value": "69%"}
{"Molecule": "CN(C)C(=O)Cn1cc(-c2ccc(-c3cncc4ccccc34)cc2)cn1", "Quantity name": "Population Normal (%)", "Measured value": "92%"}
{"Molecule": "CN[C@@H](C)C(=O)N[C@H](C(=O)N1CCC[C@H]1C(=O)Nc1snnc1-c1ccccc1)C1CCCCC1", "Quantity name": "Population Normal (%)", "Measured value": "93%"}
{"Molecule": "COc1cccc2c1c(NS(=O)(=O)c1ccc(Cl)s1)nn2Cc1cccc(CNC(=O)C(C)(C)O)c1", "Quantity name": "Population Normal (%)", "Measured value": "92%"}
{"Molecule": "Cc1onc(-c2ccccc2Cl)c1C(=O)N(C)c1ccc(Cl)cc1", "Quantity name": "Population Normal (%)", "Measured value": "96%"}
{"Molecule": "CCCCC1=NC2(CCCC2)C(=O)N1Cc1ccc(-c2ccccc2-c2nnn[nH]2)cc1", "Quantity name": "Population Normal (%)", "Measured value": "92%"}
{"Molecule": "CCCCC(=O)N(Cc1ccc(-c2ccccc2-c2nnn[nH]2)cc1)[C@H](C(=O)O)C(C)C", "Quantity name": "Population Normal (%)", "Measured value": "93%"}
{"Molecule": "CC(C)(C)c1cc(NC(=O)Nc2ccc(-c3cn4c(n3)sc3cc(OCCN5CCOCC5)ccc34)cc2)no1", "Quantity name": "Population Normal (%)", "Measured value": "95%"}
{"Molecule": "CC[C@@H](C)Nc1nc(C)nc2c(-c3ccc(OC)nc3C)c(C)nn12", "Quantity name": "Population Normal (%)", "Measured value": "92%"}

Fill in: Population Normal (%) on HEK-293T, entry Br.CS(=O)(=O)Nc1c(O)ccc2c1CCCC2C1=NCCN1 (stereo unspecified)
91%

Fill in: Population Normal (%) on HEK-293T, entry CC(=O)Nc1cccc2c1c(Sc1ccc(Cl)cc1)c(C)n2CC(=O)O
90%

Fill in: Population Normal (%) on HEK-293T, entry CC(/C=C1\SC(=S)N(CCCC(=O)Nc2ccc(C(=O)O)c(O)c2)C1=O)=C\c1ccccc1
92%

Fill in: Population Normal (%) on HEK-293T, entry CCCOc1ccc2[nH]cc(C3=CCNCC3)c2n1.Cl
97%

Fill in: Population Normal (%) on HEK-293T, entry N#Cc1cc(F)cc(-c2nc(-c3ccc(F)cn3)no2)c1
92%

Fill in: Population Normal (%) on HEK-293T, entry Cc1cccc(NC(=O)CN2CCC(c3ccccn3)CC2)c1.Cl.Cl
95%

Fill in: Population Normal (%) on HEK-293T, entry CC(C)COc1ccc(CNC(=O)N(Cc2ccc(F)cc2)C2CCN(C)CC2)cc1
91%

Fill in: Population Normal (%) on HEK-293T, entry O=C(NCCN1CCC(n2c(=O)[nH]c3cc(Cl)ccc32)CC1)c1ccc(F)cc1 [HALOPEMIDE]
93%

----------
Tested on: HEK-293T
Test: Multiplex assay against HEK293T
Type: toxicity, cell-based
Settings: human, 24 h, 10 µM, compound concentration 10 uM, replicate 1
Quantity name: Population Apoptotic (%)
Give just the number in %; leave the unit off.

Past entries and their recorded results:
{"Compound": "O=C1[C@H](Cc2ccc(O)cc2)N2C(=O)CCN(C(=O)NCc3ccccc3)[C@H]2CN1Cc1cccc2ccccc12", "Population Apoptotic (%)": 68}
{"Compound": "CC[C@@H](C)Nc1nc(C)nc2c(-c3ccc(OC)nc3C)c(C)nn12 [PEXACERFONT]", "Population Apoptotic (%)": 37}

Retrieve Population Apoptotic (%) measured for CC(C)(C)c1cc(NC(=O)Nc2ccc(-c3cn4c(n3)sc3cc(OCCN5CCOCC5)ccc34)cc2)no1 [QUIZARTINIB] and print it.
62

Retrieve Population Apoptotic (%) measured for Cc1cccc(NC(=O)CN2CCC(c3ccccn3)CC2)c1.Cl.Cl and print it.
59

Retrieve Population Apoptotic (%) measured for CC(/C=C1\SC(=S)N(CCCC(=O)Nc2ccc(C(=O)O)c(O)c2)C1=O)=C\c1ccccc1 and print it.
33

Retrieve Population Apoptotic (%) measured for CN1CCN(c2cc(-c3ccccc3)nc(N)n2)CC1 and print it.
44

Retrieve Population Apoptotic (%) measured for CCCCCC(O)/C=C/[C@H]1C(=O)CC(O)C1C/C=C\CCCC(=O)O (some centres undefined) and print it.
27

Retrieve Population Apoptotic (%) measured for Cc1onc(-c2ccccc2Cl)c1C(=O)N(C)c1ccc(Cl)cc1 and print it.
45

Retrieve Population Apoptotic (%) measured for N#Cc1c(Oc2cccc(OS(=O)(=O)CCCC(F)(F)F)c2)cccc1C(F)(F)F and print it.
43

Retrieve Population Apoptotic (%) measured for Cc1c(CC(=O)O)c2cccnc2n1Cc1ccc(S(C)(=O)=O)cc1C(F)(F)F [FEVIPIPRANT] and print it.
33

Retrieve Population Apoptotic (%) measured for CC(=O)Nc1cccc2c1c(Sc1ccc(Cl)cc1)c(C)n2CC(=O)O [AZD1981] and print it.
40

Retrieve Population Apoptotic (%) measured for Br.CS(=O)(=O)Nc1c(O)ccc2c1CCCC2C1=NCCN1 (centres undefined) and print it.
30

Retrieve Population Apoptotic (%) measured for Cl.N=C(N)NC(=O)Cc1c(Cl)cccc1Cl [GUANFACINE HYDROCHLORIDE] and print it.
46

Retrieve Population Apoptotic (%) measured for O=C(CCCc1ccccc1)Nc1nc2ccccc2c(=O)s1 and print it.
33

Origin of the recorded values: ChEMBL document CHEMBL5058577
